Source listed as patent US20190225692A1.

system.name: T1, HLA-A2/E7 (11-19) tetramer (human; HPV 16)
T1 construct: also called E7(11-19) peptide-MHC tetramer; E7 (11-19)-loaded tetramer
experiment: tetramer flow cytometry; transfected 1:1 CD4+ and CD4+/CD8+ Jurkat-derived cells;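 note: cells transiently transfected with TCR plasmids, stained 48 h later with HLA-A*02:01 peptide-MHC tetramer plus anti-CD8 antibody, read by flow cytometry to assess CD8-independent tetramer binding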
outcome.measure: % cells in E7 tet+/CD8- quadrant (%)
// note: answer is a bare numeric in %

Name the recorded % cells in E7 tet+/CD8- quadrant for TCR 53 (codon optimized, cysteine modified version) (TCR, V domains shown) V domain 1: AQSVAQPEDQVNVAEGNPLTVKCTYSVSGNPYLFWYVQYPNRGLQFLLKYITGDNLVKGSYGFEAEFNKSQTSFHLKKPSALVSDSALYFCAVRDFGSGTYKYIFG V domain 2: GAGVSQSPRYKVTKRGQDVALRCDPISGHVSLYWYRQALGQGPEFLTYFNYEAQQDKSGLPNDRFSAERPEGSISTLTIQRTEQRDSAMYRCASSGSGTSGYNEQFFGPGTRLTVLE .
0.43

So what's the measured % cells in E7 tet+/CD8- quadrant for this one? TCR 33 (codon optimized, cysteine modified version) (TCR, V domains shown) V domain 1: QKEVEQNSGPLSVPEGAIASLNCTYSDRGSQSFFWYRQYSGKSPELIMFIYSNGDKEDGRFTAQLNKASQYVSLLIRDSQPSDSATYLCAVNAHHTGGFKTIFGAGTRLFVKA V domain 2: EPEVTQTPSHQVTQMGQEVILRCVPISNHLYFYWYRQILGQKVEFLVSFYNNEISEKSEIFDDQFSVERPDGSNFTLKIRSTKLEDSAMYFCASTPRDTYEQYFGPGTRLTVTE
14

% cells in E7 tet+/CD8- quadrant lookup needed for TCR 39 (codon optimized, cysteine modified version) (TCR, V domains shown) V domain 1: GQQLNQSPQSMFIQEGEDVSMNCTSSSIFNTWLWYKQEPGEGPVLLIALYKAGELTSNGRLTAQFGITRKDSFLNISASIPSDVGIYFCAGYSSSNDYKLSFGAGTTVTVRA V domain 2: EPEVTQTPSHQVTQMGQEVILRCVPISNHLYFYWYRQILGQKVEFLVSFYNNEISEKSEIFDDQFSVERPDGSNFTLKIRSTKLEDSAMYFCASTPRDRGKEAFFGQGTRLTVVE , thanks.
2.61

Which % cells in E7 tet+/CD8- quadrant is reported for this binder? TCR 40 (codon optimized, cysteine modified version) (TCR, V domains shown) V domain 1: GQQVMQIPQYQHVQEGEDFTTYCNSSTTLSNIQWYKQRPGGHPVFLIQLVKSGEVKKQKRLTFQFGEAKKNSSLHITATQTTDVGTYFCAGRNNFNKFYFGSGTKLNVKP V domain 2: EPEVTQTPSHQVTQMGQEVILRCVPISNHLYFYWYRQILGQKVEFLVSFYNNEISEKSEIFDDQFSVERPDGSNFTLKIRSTKLEDSAMYFCAITARSSYEQYFGPGTRLTVTE
1.37

If you can, please state the reported % cells in E7 tet+/CD8- quadrant value of TCR 43 (codon optimized, cysteine modified version) (TCR, V domains shown) V domain 1: QKEVEQNSGPLSVPEGAIASLNCTYSDRGSQSFFWYRQYSGKSPELIMFIYSNGDKEDGRFTAQLNKASQYVSLLIRDSQPSDSATYLCAVNVPTSGTYKYIFGTGTRLKVLA V domain 2: EPEVTQTPSHQVTQMGQEVILRCVPISNHLYFYWYRQILGQKVEFLVSFYNNEISEKSEIFDDQFSVERPDGSNFTLKIRSTKLEDSAMYFCASTPRDSYEQYFGPGTRLTVTE .
1.88

Would you kindly share the measured % cells in E7 tet+/CD8- quadrant for TCR 49 (codon optimized, cysteine modified version) (TCR, V domains shown) V domain 1: QKEVEQNSGPLSVPEGAIASLNCTYSDRGSQSFFWYRQYSGKSPELIMFIYSNGDKEDGRFTAQLNKASQYVSLLIRDSQPSDSATYLCAVNIGTSGTYKYIFGTGTRLKVLA V domain 2: EPEVTQTPSHQVTQMGQEVILRCVPISNHLYFYWYRQILGQKVEFLVSFYNNEISEKSEIFDDQFSVERPDGSNFTLKIRSTKLEDSAMYFCASTPRYSYEQYFGPGTRLTVTE ?
3.06

Returns the measured % cells in E7 tet+/CD8- quadrant for the input binder. Input: TCR 36 (codon optimized, cysteine modified version) (TCR, V domains shown) V domain 1: RKEVEQDPGPFNVPEGATVAFNCTYSNSASQSFFWYRQDCRKEPKLLMSVYSSGNEDGRFTAQLNRASQYISLLIRDSKLSDSATYLCVVNRDNYGQNFVFGPGTRLSVLP V domain 2: EPEVTQTPSHQVTQMGQEVILRCVPISNHLYFYWYRQILGQKVEFLVSFYNNEISEKSEIFDDQFSVERPDGSNFTLKIRSTKLEDSAMYFCAMTGRSNYEQYFGPGTRLTVTE
16.7
